# measurement.target: human Nectin-4 (protein used in the SPR affinity measurements) (human) (UniProt Q96NY8)
# Sequence (Q96NY8 32-349 limits assumed): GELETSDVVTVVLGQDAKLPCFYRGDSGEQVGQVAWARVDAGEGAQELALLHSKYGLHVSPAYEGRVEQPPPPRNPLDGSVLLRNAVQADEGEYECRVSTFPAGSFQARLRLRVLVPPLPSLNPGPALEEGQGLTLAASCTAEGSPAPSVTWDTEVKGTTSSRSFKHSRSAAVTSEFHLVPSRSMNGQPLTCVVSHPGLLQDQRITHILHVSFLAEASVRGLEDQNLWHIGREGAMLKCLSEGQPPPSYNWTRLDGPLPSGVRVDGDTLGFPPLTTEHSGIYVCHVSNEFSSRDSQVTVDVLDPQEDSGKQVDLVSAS
# test.summary: SPR, human IgG1
pKd: −log10 of the molar value.
quantity.kind: pKd

binder	numeric.value
H8L1 (antibody, human IgG1, V domains shown, human IgG1 isotype) VH: QVQLVQSGAEVKKPGASVKVSCKASGYIFTSYWMHWVKQAPGQGLEWIGEIDPSDSYTNYNQKFKGRVTMTLDKSTSTTYMELSSLRSEDTAVYYCARGYGNYGDYWGQGTLVTVSS VL: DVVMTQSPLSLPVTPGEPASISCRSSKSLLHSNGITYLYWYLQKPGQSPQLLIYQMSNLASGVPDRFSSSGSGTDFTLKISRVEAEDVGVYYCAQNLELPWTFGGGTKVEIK	7.72
H2L0 (antibody, human IgG1, V domains shown, human IgG1 isotype) VH: QVQLVQSGAEVKKPGASVKVSCKASGYTFTSYWMHWVRQAPGQGLEWMGEIDPSDSYTNYNQKFKGRVTMTLDKSTSTTYMELSSLRSEDTAVYYCARGYGNYGDYWGQGTLVTVSS VL: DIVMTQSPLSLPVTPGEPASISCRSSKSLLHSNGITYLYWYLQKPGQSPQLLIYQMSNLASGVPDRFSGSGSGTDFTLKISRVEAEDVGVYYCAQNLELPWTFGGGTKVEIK	7.33
H6L2 (antibody, human IgG1, V domains shown, human IgG1 isotype) VH: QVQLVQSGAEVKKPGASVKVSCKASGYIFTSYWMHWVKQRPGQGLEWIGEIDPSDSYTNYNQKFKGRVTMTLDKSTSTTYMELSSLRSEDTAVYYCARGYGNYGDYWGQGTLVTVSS VL: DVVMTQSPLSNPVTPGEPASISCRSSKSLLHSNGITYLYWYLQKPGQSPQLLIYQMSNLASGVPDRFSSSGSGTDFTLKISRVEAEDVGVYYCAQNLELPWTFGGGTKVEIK	7.38

Reference for the values: patent US20250297004A1
